- assay procedure: Half life in monkey at 7.6 mg/kg, po
- Assay type: ADME, organism-based, Macaca mulatta
- Parameters: dose 7.6 mg/kg, route oral
- assay setup: rhesus monkey, in vivo
quantity measured: half-life
Give me the value, and tack the unit on after it.

Look at this molecule and give its reported half-life. `N#Cc1ccccc1Cn1c(N2CCC[C@@H](N)C2)ncc(Br)c1=O`
5.4 h

###

- assay procedure: AUC in dog at 2.7 mg/kg, po
- Format: ADME, organism-based, Canis lupus familiaris
- Parameters: dose 2.7 mg/kg, route oral
- assay setup: plasma
AUC by entry:
Could you give me the number in µg·h/mL? Just the number is fine.

[
  {
    "compound structure": "Cn1c(=O)cc(N2CCC[C@@H](N)C2)n(Cc2cc(F)ccc2C#N)c1=O.O=C(O)C(F)(F)F",
    "quantitative readout": 2.2
  }
]

Here's the next entry for you.
State the recorded AUC for this entry: `Cl.N#Cc1ccccc1Cn1c(N2CCC[C@@H](N)C2)ncc(F)c1=O`
3.2

###

- assay procedure: Half life in rat at 0.8 mg/kg, iv
- Type: ADME, organism-based
- Set-up: dose 0.8 mg/kg, route intravenous
- assay setup: in vivo
quantity measured: half-life (h)
Reply numerically in h, unit not repeated.

# lookup: half-life of `Cl.N#Cc1ccccc1Cn1c(N2CCC[C@@H](N)C2)ncc(Cl)c1=O`
1.3

###

- System: Macaca fascicularis
- assay procedure: Half life in monkey at 0.93 mg/kg, iv
- assay setup: cynomolgus monkey, in vivo
quantity measured: half-life (h)
Output spec: scalar in h, unitless text.

Look up half-life: `Cn1c(=O)cc(N2CCC[C@@H](N)C2)n(Cc2cc(F)ccc2C#N)c1=O.O=C(O)C(F)(F)F`
5.6

###

- assay procedure: Half life in dog at 0.85 mg/kg, iv
- Assay type: ADME, organism-based, Canis lupus familiaris
- Design: dose 0.85 mg/kg, route intravenous
- assay setup: in vivo
quantity measured: half-life (h)
Enter your answer as a number in h; do not include the unit.

Which half-life reading was recorded for the molecule `Cl.N#Cc1ccccc1Cn1c(N2CCC[C@@H](N)C2)ncc(F)c1=O` ?
4.6

###

- assay procedure: Half life in rat at 0.71 mg/kg, iv
- Format: ADME, organism-based
- Set-up: dose 0.71 mg/kg, route intravenous
- assay setup: in vivo
quantity measured: half-life (h)
State just the number; it will be interpreted in h.

Quick check: half-life of `N#Cc1ccccc1Cn1c(N2CCC[C@@H](N)C2)ncc(F)c1=O.O=C(O)C(F)(F)F` ?
1.5

###

- assay procedure: Half life in rat at 10 mg/kg, po
- Assay type: ADME, organism-based
- Design: dose 10 mg/kg, route oral
- assay setup: in vivo
quantity measured: half-life (h)
Respond with the bare value in h.

Report half-life for `Cl.N#Cc1ccccc1Cn1c(N2CCC[C@@H](N)C2)ncc(Br)c1=O` please.
1.7

###

- assay procedure: Oral bioavailability in dog at 2.5 mg/kg
- Format: ADME, organism-based, Canis lupus familiaris
- assay setup: in vivo
quantity measured: bioavailability (%)
The figure you give is taken to be in %; do not add the unit.

Which measured bioavailability value corresponds to `Cl.N#Cc1ccccc1Cn1c(N2CCC[C@@H](N)C2)ncc(Cl)c1=O` ?
90

###

- assay procedure: Half life in monkey at 2.1 mg/kg, po
- Assay type: ADME, organism-based, Macaca mulatta
- Design: dose 2.1 mg/kg, route oral
- assay setup: rhesus monkey, in vivo
quantity measured: half-life (min)
Just the number in min, nothing appended.

Report half-life for N#Cc1ccccc1Cn1c(N2CCC[C@@H](N)C2)ncc(F)c1=O.O=C(O)C(O)C(O)C(=O)O [TARTARATE] please.
342
